biological target: wildtype HIV-1 protease (Human immunodeficiency virus type 1 group M subtype B, UniProt P04585)
Binning scheme for IC50: lower bin = under 1 nM, middle bin = from 1 nM up to 50 nM, upper bin = 50 nM and over

Worked examples follow.
cpd_smiles=COC(=O)N[C@H](C(=O)Nc1ccccc1CC[C@@H]1CNC[C@@H](CSc2ncnc3c2cnn3C)O1)C(c1ccccc1)c1ccccc1 group_label="lower bin"
cpd_smiles=COC(=O)N[C@H](C(=O)Nc1ccccc1CC[C@@H]1CNC[C@@H](CSc2ccc(C#N)cc2)O1)C(c1ccccc1)c1ccccc1 group_label="middle bin"
cpd_smiles=COC(=O)N[C@H](C(=O)Nc1ccccc1CC[C@@H]1CNC[C@@H](COc2ccc(Br)cc2[N+](=O)[O-])O1)C(c1ccccc1)c1ccccc1 group_label="upper bin"

Query: Exam item: assign COC(=O)N[C@H](C(=O)Nc1ccccc1CC[C@@H]1CNC[C@@H](COc2ccc3ncsc3c2)O1)C(c1ccccc1)c1ccccc1 to the correct category.
Reply: middle bin

Query: Exam item: assign COC(=O)N[C@H](C(=O)Nc1ccccc1CC[C@@H]1CNC[C@@H](CSc2ccc(Cl)cc2)O1)[C@@H](c1ccccc1)c1ccnc2ccccc12 to the correct category.
Reply: lower bin

Query: Exam item: assign COC(=O)N[C@H](C(=O)Nc1ccccc1OC[C@@H]1CNC[C@@H](CSc2ccc(Cl)cc2)O1)C(c1ccccc1)c1ccccc1 to the correct category.
Reply: middle bin

---

target: wildtype HIV-1 protease (Human immunodeficiency virus type 1 group M subtype B); construct: preincubated with the HIV-1 protease (wild type) enzyme in assay buffer; made in house; host or cells: Escherichia coli; test: Assay for inhibition of microbial expressed HIV protease (Pepcleav); assay type: biochemical; settings: wild type HIV-1 protease 20 pM, peptide substrate 400 micromolar, pH 5.5; mean of at least two independent experiments
Collected IC50 values appear next to each entry.
Respond numerically; units are µM and should not be typed.

cpd_smiles=COC(=O)N[C@H](C(=O)Nc1cncc(F)c1CC[C@@H]1CNC[C@@H](COc2ccc(C#N)cc2)O1)C(c1ccccc1)c1ccccc1 study_target="wildtype HIV-1 protease (Human immunodeficiency virus type 1 group M subtype B)" readout=IC50 measure_unit=µM obs_value=0.0098
cpd_smiles=COC(=O)N[C@H](C(=O)Nc1ccccc1CC[C@@H]1CNC[C@@H](COc2cccc3cc[nH]c23)O1)C(c1ccccc1)c1ccccc1 study_target="wildtype HIV-1 protease (Human immunodeficiency virus type 1 group M subtype B)" readout=IC50 measure_unit=µM obs_value=0.24
cpd_smiles=COC(=O)N[C@H](C(=O)Nc1ccccc1CC[C@@H]1CNC[C@@H](COc2ccc(Br)cc2)O1)C(c1ccccc1)c1ccccc1 study_target="wildtype HIV-1 protease (Human immunodeficiency virus type 1 group M subtype B)" readout=IC50 measure_unit=µM obs_value=0.018
cpd_smiles=COC(=O)N[C@H](C(=O)Nc1ccccc1CC[C@@H]1CNC[C@@H](COc2ccc(C#N)cc2C)O1)C(c1ccccc1)c1ccccc1 study_target="wildtype HIV-1 protease (Human immunodeficiency virus type 1 group M subtype B)" readout=IC50 measure_unit=µM obs_value=0.017
cpd_smiles=COC(=O)N[C@H](C(=O)Nc1ccccc1CC[C@@H]1CNC[C@@H](CSc2ccc(Cl)c(Cl)c2)O1)C(c1ccccc1)c1ccccc1 study_target="wildtype HIV-1 protease (Human immunodeficiency virus type 1 group M subtype B)" readout=IC50 measure_unit=µM obs_value=0.0087

Moving on to the next compound.
Query: Look up IC50 with wildtype HIV-1 protease (Human immunodeficiency virus type 1 group M subtype B) for this compound: N[C@H](C(=O)Nc1cncc(F)c1CC[C@@H]1CNC[C@@H](CSc2nnc(-c3ccncc3)o2)O1)C(c1ccc(F)cc1)c1ccc(F)cc1
Reply: 0.00049

---

wildtype HIV-1 protease (Human immunodeficiency virus type 1 group M subtype B): reported IC50 for various compounds.
Respond numerically; units are nM and should not be typed.

compound=COC(=O)N[C@H](C(=O)Nc1ccc(F)cc1CC[C@@H]1CNC[C@@H](COc2ccc(C#N)cc2)O1)C(c1ccccc1)c1ccccc1 study_target="wildtype HIV-1 protease (Human immunodeficiency virus type 1 group M subtype B)" readout=IC50 obs_value=46

Moving on to the next compound.
Query: Look up IC50 with wildtype HIV-1 protease (Human immunodeficiency virus type 1 group M subtype B) for this compound: COC(=O)N[C@H](C(=O)Nc1ccccc1CC[C@@H]1CNC[C@@H](COc2ccc(S(C)(=O)=O)cc2)O1)C(c1ccccc1)c1ccccc1
Reply: 19

---

target: wildtype HIV-1 protease (Human immunodeficiency virus type 1 group M subtype B)
pIC50: −log10 of the molar value.
Binary classification by pIC50, with 8 as an inclusive lower bound for satisfied; all other cases are not satisfied.

Worked examples follow.
molecule="COC(=O)N[C@H](C(=O)Nc1ccccc1C[C@H]1CNC[C@@H](COc2ccc(C#N)cc2)O1)C(c1ccccc1)c1ccccc1 [Example 117]" study_target="wildtype HIV-1 protease (Human immunodeficiency virus type 1 group M subtype B)" group_label="not satisfied"
molecule="N[C@H](C(=O)Nc1cccc(F)c1CC[C@@H]1CNC[C@@H](CSc2nnc(-c3ccncc3)o2)O1)C(c1ccc(F)cc1)c1ccc(F)cc1 [Example 91]" study_target="wildtype HIV-1 protease (Human immunodeficiency virus type 1 group M subtype B)" group_label=satisfied
molecule="N[C@H](C(=O)Nc1cncc(F)c1CC[C@@H]1CNC[C@@H](COC(=O)N2CCOCC2)O1)C(c1ccc(F)cc1)c1ccc(F)cc1 [Example 105]" study_target="wildtype HIV-1 protease (Human immunodeficiency virus type 1 group M subtype B)" group_label="not satisfied"
molecule="COC(=O)N[C@H](C(=O)Nc1ccccc1CC[C@@H]1CNC[C@@H](COc2cccc3[nH]ccc23)O1)C(c1ccccc1)c1ccccc1 [Example 30]" study_target="wildtype HIV-1 protease (Human immunodeficiency virus type 1 group M subtype B)" group_label="not satisfied"

Query: Confirm if pIC50 reported for the molecule COC(=O)N[C@H](C(=O)Nc1cncc(F)c1CC[C@@H]1CNCC2(CCOCC2)O1)[C@@H](c1ccc(Cl)cc1)c1cc(F)cc(F)c1 [Example 98] is 8 or above.
Reply: not satisfied

---

wildtype HIV-1 protease (Human immunodeficiency virus type 1 group M subtype B): reported pIC50 for various compounds.
// pIC50 is dimensionless: -log10 of concentration (M)

Worked set:
compound=COC(=O)N[C@H](C(=O)Nc1ccccc1CC[C@@H]1CNC[C@@H](CSc2nnc(-c3ccncc3)o2)O1)C(c1ccccc1)c1ccccc1 readout=pIC50 obs_value=9.38
compound=N[C@H](C(=O)Nc1cncc(F)c1CC[C@@H]1CNC[C@@H](COC(=O)NCc2ccc(F)cc2)O1)C(c1ccc(F)cc1)c1ccc(F)cc1 readout=pIC50 obs_value=7.82
compound=COC(=O)N[C@H](C(=O)Nc1cccnc1CC[C@@H]1CNC[C@@H](COc2cccc(C#N)c2)O1)C(c1ccccc1)c1ccccc1 readout=pIC50 obs_value=6.29

Query: Look up pIC50 with wildtype HIV-1 protease (Human immunodeficiency virus type 1 group M subtype B) for this compound: COC(=O)N[C@H](C(=O)Nc1ccccc1CC[C@@H]1CNC[C@@H](CSc2cccc3ncccc23)O1)C(c1ccccc1)c1ccccc1
Reply: 9.03

Query: Look up pIC50 with wildtype HIV-1 protease (Human immunodeficiency virus type 1 group M subtype B) for this compound: COC(=O)N[C@H](C(=O)Nc1ccc(F)cc1CC[C@@H]1CNC[C@@H](COc2cccc(C#N)c2)O1)C(c1ccccc1)c1ccccc1
Reply: 7.41

---

target: wildtype HIV-1 protease (Human immunodeficiency virus type 1 group M subtype B)
readout: log10 of IC50 (log10 of the value in nM)
Base-10 log of IC50, unit nM.

molecule=O=C(Nc1c(CC[C@@H]2CNC[C@@H](CSc3ccc(Cl)cc3)O2)cc[nH]c1=O)[C@@H](NCC(F)(F)F)C(c1ccccc1)c1ccccc1 readout="log10 of IC50" obs_value=1.09

Query: Look up log10 of IC50 with wildtype HIV-1 protease (Human immunodeficiency virus type 1 group M subtype B) for this molecule: COC(=O)N[C@H](C(=O)NCCCC1CNC[C@@H](CSc2ccc(Cl)cc2C)O1)C(c1ccccc1)c1ccccc1 (stereo partly shown)
Reply: 2.62

Query: Look up log10 of IC50 with wildtype HIV-1 protease (Human immunodeficiency virus type 1 group M subtype B) for this molecule: COC(=O)N[C@H](C(=O)NCCCC1CNC[C@@H](CSc2ccc(Cl)cc2)O1)C(c1ccccc1)c1ccccc1 (stereo partly shown)
Reply: 2.48

Query: Look up log10 of IC50 with wildtype HIV-1 protease (Human immunodeficiency virus type 1 group M subtype B) for this molecule: COC(=O)N[C@H](C(=O)Nc1cccc(F)c1CC[C@@H]1CNC[C@@H](CSc2ccc(Cl)cc2)O1)C(c1ccccc1)c1ccccc1
Reply: -0.05

---

Collected pIC50 values appear next to each entry.
target: wildtype HIV-1 protease (Human immunodeficiency virus type 1 group M subtype B, UniProt P04585)
// pIC50 is dimensionless: -log10 of concentration (M)

Query: Look at this compound and give its reported pIC50. COC(=O)N[C@H](C(=O)Nc1ccccc1CC[C@@H]1CNC[C@@H](COc2ccc3cn[nH]c3c2)O1)C(c1ccccc1)c1ccccc1
Reply: 7.96

Query: Look at this compound and give its reported pIC50. COC(=O)N[C@H](C(=O)Nc1ccccc1CC[C@@H]1CNC[C@@H](COc2ccc(S(C)(=O)=O)cc2C)O1)C(c1ccccc1)c1ccccc1
Reply: 7.74

Query: Look at this compound and give its reported pIC50. COC(=O)N[C@H](C(=O)Nc1c(F)cccc1CC[C@@H]1CNC[C@@H](COc2ccc(C#N)cc2)O1)C(c1ccccc1)c1ccccc1
Reply: 8.04
